Listed below: growth inhibition values for each entry.
# assayExplanation: NCI Yeast Anticancer Drug Screen. Data for the sgs1 mgt1 strain (AID 161);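 also: 0% = growth of cultures given vehicle only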
# particulars: S. cerevisiae sgs1 mgt1 strain, at 50.0 µM, hits give high values
About 79,000 compounds went through this panel and 15% of them were active in at least one assay; those are over-represented in the sample as a whole.
endpointName: growth inhibition (%)

[[record]]
inputsmiles = "C=CCC1(CC=C)C(=O)N(C)C(=O)N(C)C1=O"
recordedresult = -6.75

[[record]]
inputsmiles = "CC(C)(C)S.[Hg]"
recordedresult = 99.7

[[record]]
inputsmiles = "CCOC(OCC)c1ccc(N(C)C)cc1.[C-]#[O+].[C-]#[O+].[C-]#[O+].[Cr]"
recordedresult = 37.8


Data origin: PubChem BioAssay (NCI)
